# Tested on: U-2932
# experiment: growth inhibition by drug plus 177Lu-lilotomab satetraxetan (1 - RLU/untreated control) (fraction); higher = stronger inhibition
# details: 10 nM; time (day): 3; 177Lu-lilotomab satetraxetan 1 ug/ml
Structures can show the parent of a compound that is named as a salt.
Use -0.01 as the dividing line for growth inhibition by drug plus 177Lu-lilotomab satetraxetan, with the line itself on the fulfilled side and lower values as not fulfilled.

Enquiry: Form field: growth inhibition by drug plus 177Lu-lilotomab satetraxetan at least -0.01? Entry: `CCCCCCCc1ccc(CCc2cccc(O)c2C(=O)O)cc1`
Return: not fulfilled

Enquiry: Please tell me: is the compound `COc1cc2c(cc1OC)CN(CCc1ccc(NC(=O)c3cccc4c(=O)c5cccc(OC)c5[nH]c34)cc1)CC2` at or over -0.01 in terms of growth inhibition by drug plus 177Lu-lilotomab satetraxetan?
Return: not fulfilled

Enquiry: Say whether `O=C(c1cc(Cc2n[nH]c(=O)c3ccccc23)ccc1F)N1CCN(C(=O)C2CC2)CC1` shows growth inhibition by drug plus 177Lu-lilotomab satetraxetan of -0.01 or more.
Return: not fulfilled

Enquiry: Decide: growth inhibition by drug plus 177Lu-lilotomab satetraxetan of Clc1ccc(Nc2nnc(Cc3ccncc3)c3ccccc23)cc1 [Vatalanib dihydrochloride (PTK787)] >= -0.01?
Return: not fulfilled

Enquiry: growth inhibition by drug plus 177Lu-lilotomab satetraxetan >= -0.01 for `CN(C)Cc1c(C(=O)NCCOc2ccc(C(=O)NO)cc2)oc2ccccc12` ?
Return: fulfilled

Enquiry: # check: growth inhibition by drug plus 177Lu-lilotomab satetraxetan of O=C(O)CCCc1ccccc1 [4-Phenylbutyrate] is greater than or equal to -0.01
Return: fulfilled

Enquiry: Record CO[C@H]1C[C@@H]2CC[C@@H](C)[C@@](O)(O2)C(=O)C(=O)N2CCCC[C@H]2C(=O)O[C@H]([C@H](C)C[C@@H]2CC[C@@H](O)[C@H](OC)C2)CC(=O)[C@H](C)/C=C(\C)[C@@H](O)[C@@H](OC)C(=O)[C@H](C)C[C@H](C)/C=C/C=C/C=C/1C [Rapamycin (Sirolimus)] ; criterion: growth inhibition by drug plus 177Lu-lilotomab satetraxetan no lower than -0.01. Met?
Return: fulfilled

---

Could you please report measured growth inhibition by drug alone for the items listed next?
# Test system: RIVA
# experiment: growth inhibition by drug alone (1 - RLU/untreated control) (fraction); higher = stronger inhibition
# details: 100 nM; time (day): 6; 177Lu-lilotomab satetraxetan 0 ug/ml
Number only, please.

Enquiry: Read off the recorded growth inhibition by drug alone for CN(N=O)C(=O)N[C@@H](C=O)[C@@H](O)[C@H](O)[C@H](O)CO [Streptozotocin (Zanosar)]
Return: -0.376

Enquiry: Name the recorded growth inhibition by drug alone of the compound listed here: CCN(CC)CCCC(C)Nc1nc(C)cc(Nc2ccc3nc(C)cc(N)c3c2)n1 (stereo not drawn)
Return: -0.391

Enquiry: Item `COc1cc2ncnc(-n3nc(-c4ccccn4)nc3N)c2cc1OC` : provide growth inhibition by drug alone
Return: -0.143

Enquiry: Specify measured growth inhibition by drug alone for `CCOc1ccc(Cc2cc([C@@H]3O[C@H](CO)[C@@H](O)[C@H](O)[C@H]3O)ccc2Cl)cc1` .
Return: -0.161

Enquiry: Check the records and state growth inhibition by drug alone for `C[C@@H](Oc1cc(-c2cnn(C3CCNCC3)c2)cnc1N)c1c(Cl)ccc(F)c1Cl`
Return: -0.62

Enquiry: Give reported growth inhibition by drug alone value for C[C@]12CCC(=O)C=C1CC[C@@H]1[C@@H]2[C@@H](O)C[C@@]2(C)[C@H]1CC[C@]2(O)C(=O)CO [Hydrocortisone (Cortisol)]
Return: -0.697

Enquiry: Give me measured growth inhibition by drug alone, please, for this compound: `Nc1nc(N)c(N=O)c(OCC2CCCCC2)n1`
Return: -0.473

Enquiry: Answer with reported growth inhibition by drug alone of `O=C1c2ccccc2-c2nc3nonc3nc21`
Return: -0.831

Enquiry: Please give measured growth inhibition by drug alone of the following entry: `COc1ccc(S(=O)(=O)Nc2cccnc2Nc2ccc(O)cc2)cc1`
Return: -0.581

Enquiry: Provide only the value of recorded growth inhibition by drug alone for `C[C@@H](Oc1cc(-n2cnc3ccc(CN4CCN(C)CC4)cc32)sc1C(N)=O)c1ccccc1C(F)(F)F`
Return: 0.969

Enquiry: Note growth inhibition by drug alone for the compound shown: `CC[C@@H]1C(=O)N(C)c2cnc(Nc3ccc(C(=O)NC4CCN(C)CC4)cc3OC)nc2N1C1CCCC1`
Return: 0.968

Enquiry: Supply recorded growth inhibition by drug alone for `C[C@@H]1C[C@H]2[C@@H]3CCC4=CC(=O)C=C[C@]4(C)[C@@]3(F)[C@@H](O)C[C@]2(C)[C@@]1(O)C(=O)CO` here.
Return: -0.312

Enquiry: Note down growth inhibition by drug alone recorded for `C=CCc1cccc(/C=N/NC(=O)CN2CCN(Cc3ccccc3)CC2)c1O`
Return: -0.181

Enquiry: Please indicate growth inhibition by drug alone recorded for `O=C(/C=C/c1cccnc1)NCCCCC1CCN(C(=O)c2ccccc2)CC1`
Return: 0.98

Enquiry: Using known records, supply growth inhibition by drug alone for `CCOC(=O)[C@@H](C)Oc1cccc2c(=O)n(CC(=O)Nc3ccc4c(c3)OCCO4)ccc12`
Return: -0.142

Enquiry: Please give the documented growth inhibition by drug alone of `COc1cc2ncnc(Nc3ccc(F)c(Cl)c3)c2cc1NC(=O)/C=C/CN1CCCCC1`
Return: -0.346

Enquiry: Quote growth inhibition by drug alone reported for `Cc1[nH]c(/C=C2\C(=O)Nc3ccc(S(=O)(=O)N(C)c4cccc(Cl)c4)cc32)c(C)c1C(=O)N1CCN(C)CC1` please.
Return: -0.342

Enquiry: Specify measured growth inhibition by drug alone for `COc1ccc(CNC(=O)Nc2ncc([N+](=O)[O-])s2)cc1` .
Return: -0.0255

The measurements presented in this section are drawn from the supplement of paper PMC6897291.
